Test system: CD2F1 mice, L1210 leukemia ip, survival T/C
Experiment: NCI In Vivo Anticancer Drug Screen. Data for tumor model L1210 Leukemia (intraperitoneal) in CD2F1 (CDF1) mice
Conditions: endpoint: mean survival time; dose: 400.0 mg/kg/injection; schedule: Q04DX003 (ip); vehicle: saline with Tween-80; higher = longer survival
Toxic doses and inconclusive results are not listed.
Assign T/C to each entry below.

Example cases with answers are listed next.
Molecule: CCCOC(=O)c1ccc(NC(=O)Nc2ccc(C(=O)OCC)cc2)cc1
Target or test system: CD2F1 mice, L1210 leukemia ip, survival T/C
T/C: 88 % of control
//
Molecule: CSc1nc(N)cc(N)n1
Target or test system: CD2F1 mice, L1210 leukemia ip, survival T/C
T/C: 102 % of control
//
Molecule: CC(=O)OCc1ccc(Cl)cc1
Target or test system: CD2F1 mice, L1210 leukemia ip, survival T/C
T/C: 96 % of control
//
Molecule: CN(C)C(=S)NCc1ccccc1
Target or test system: CD2F1 mice, L1210 leukemia ip, survival T/C
T/C: 87 % of control
//
Molecule: CC1=NN(c2ccccc2)C(=O)C1
Target or test system: CD2F1 mice, L1210 leukemia ip, survival T/C
T/C: 86 % of control
//
Molecule: Cc1ccc(C)c(NC(=O)c2ccc(Cl)cc2Cl)c1
Target or test system: CD2F1 mice, L1210 leukemia ip, survival T/C
T/C: 96 % of control

Answer for every listed entry: what is its T/C? The entries follow.
1. C=C(c1ccccc1)c1ccc(F)cc1
2. COc1ccc(/C=C/c2ccc3ccccc3n2)c(OC)c1
3. Oc1ccc(C=NCCN=Cc2ccc(O)cc2O)c(O)c1
4. CSc1ccc(N=C/C=C/c2ccccc2)cc1
5. Cc1ccc(S(=O)(=O)OC2C(COCC(=O)O)OC3OC(C)(C)OC32)cc1 (stereo not drawn)
6. Cc1cc(NC(=O)c2ccc(Cl)cc2)ccc1Cl

102 % of control
96 % of control
88 % of control
91 % of control
93 % of control
106 % of control

Answer for every listed entry: what is its T/C? The entries follow.
1. Cc1ccnc(-n2c(N)cc(=O)[nH]c2=S)c1
2. O=[N+]([O-])c1ccc(C2C3C(c4ccccc4)=NCN32)cc1 (stereo not drawn)
3. CCCCNC(=O)C1C2CCC(C2)C1C(=O)NCCCC (stereo not drawn)
4. CCOC(=O)N1C(C(=O)c2ccc(C)cc2)N(C2CCCCC2)C(c2ccccc2)N1C(=O)OCC (stereo not drawn)
5. N#C/C(=C\c1cc(Cl)cc(Cl)c1O)C(/C(C#N)=C/c1cc(Cl)cc(Cl)c1O)c1ccc2c(c1)OCO2 (stereo not drawn)
6. CCCn1c(O)c(C=N)c(=O)n(CCC)c1=O

1: 96 % of control; 2: 92 % of control; 3: 90 % of control; 4: 93 % of control; 5: 103 % of control; 6: 100 % of control
